Experiment: Ratio of free drug level in brain to plasma in dog
Format: ADME, Canis lupus familiaris
Conditions: brain and plasma
observed-property: Kp uu
Quick one: just the number, no unit, thanks!

Please look at this molecule and report its Kp uu: NC1=N[C@@]2(c3ccc(F)cc3F)CO[C@@H](CF)C[C@H]2CS1
0.78

###

Assay: Ratio of free drug level in brain to plasma in CD1 mouse at 10 mg/kg, sc
Type: ADME, organism-based
Parameters: dose 10 mg/kg, route subcutaneous
Conditions: brain and plasma
observed-property: Kp uu
Quick one: just the number, no unit, thanks!

Worked examples, 2 compounds total:
given-smiles | observed-property | quantitative-readout
C[C@H]1C[C@H]2CSC(N)=N[C@@]2(c2ccc(F)cc2F)CO1 | Kp uu | 0.92
NC1=N[C@@]2(c3ccc(F)cc3F)CO[C@@H](C(F)F)C[C@H]2CS1 | Kp uu | 1.2

Here's the next entry for you.
Please look at this compound and report its Kp uu: NC1=N[C@@]2(c3ccc(F)cc3F)CO[C@@H](CF)C[C@H]2CS1
1.42
